Tested on: RXF-631 renal
test-protocol: NCI tumour cell line growth inhibition, 48 h
readout-name: TGI

# compound, readout-value
data = [
    ("CC1=CC(=O)NP(=O)(C23CC4CC(CC(C4)C2)C3)N1 (stereo not drawn)", "> 100 µM"),
]

Can you look up TGI on RXF-631 renal for COC(=O)/C(=N\Nc1nnc(C)n1N)C(C#N)c1ccccc1 (stereo not drawn) ? > 100 µM

Can you look up TGI on RXF-631 renal for Cc1ccc(/C=N/NS(=O)(=O)c2ccccc2)c(C)c1 ? > 100 µM

====

Test system: COLO 205 colon
test-protocol: NCI tumour cell line growth inhibition, 48 h
Below is a list of entries, each paired with its recorded TGI value.

Illustrative cases are given below, each with its answer.
# compound, readout-value
measured = [
    ("CCOC(=O)Cn1c(=O)c(C)cn(COCCO)c1=O", "> 100 µM"),
    ("O=C(Nc1ccc2ccccc2c1)c1cc2cc(CCl)ccc2oc1=O", "> 100 µM"),
]

// query TGI value for entry CCOC(=O)CC(NC(=O)c1ccc(N=NN(C)C)cc1)C(=O)OCC (stereo not drawn) > 100 µM

====

Below is a list of entries, each paired with its recorded TGI value.
System: HCT-15 colon
test-protocol: NCI tumour cell line growth inhibition, 48 h

# molecule, subject-of-test, readout-value
data = [
    ("CN(C)CCNC(=O)c1c(O)ccc2c1c1c(n2CCc2ccccc2)C(=O)c2ccccc2C1=O", "HCT-15 colon", "15.6 µM"),
    ("Clc1cc2nnn(C3CCCO3)c2cc1Cl (stereo unspecified)", "HCT-15 colon", "> 100 µM"),
    ("O=C(/C=C/c1ccc([N+](=O)[O-])cc1)c1cccc(Nc2nc(Nc3ccccc3)nc(Nc3ccccc3)n2)c1", "HCT-15 colon", "> 100 µM"),
]

// query TGI value for entry Cc1ccc(S(=NS(=O)(=O)c2ccc(C)cc2)c2ccc(C)cc2)cc1 > 100 µM

// query TGI value for entry CC(C)=NOC(=O)Nc1cccc2c1OCO2 > 100 µM

// query TGI value for entry NN/C(=N\S(=O)(=O)c1ccc(S(=O)(=O)c2ccccc2)s1)Nc1ccc(Cl)cc1 > 100 µM

// query TGI value for entry O=S(=O)(O)c1ccc2c(N=Nc3ccc(Sc4ccc(N=Nc5c(O)ccc6cc(S(=O)(=O)O)ccc56)cc4)cc3)c(O)ccc2c1 > 100 µM

// query TGI value for entry FC(F)(F)c1ccc2nc(Sc3ccc4ccccc4c3)cnc2c1 > 100 µM

// query TGI value for entry Nc1nc(N)c2c(n1)NC(c1sc(Cl)nc1Cl)CC(c1ccc3c(c1)OCO3)=N2 (stereo unspecified) 20 µM

// query TGI value for entry CC(C)(C)[Si](C)(C)OC[C@H](/C=C\CCCC(=O)O)NC1(c2ccccc2)c2ccccc2-c2ccccc21 50.9 µM

====

Test system: BT-549 breast
test-protocol: NCI tumour cell line growth inhibition, 48 h
Below is a list of entries, each paired with its recorded TGI value.

Illustrative cases are given below, each with its answer.
# compound, TGI
rows = [
    ("NN/C(=N\\S(=O)(=O)c1ccc(S(=O)(=O)c2ccccc2)s1)Nc1ccc(Cl)cc1", "> 100 µM"),
    ("CC[C@@]1(O)C(=O)OCc2c1cc1n(c2=O)Cc2c-1nc1ccccc1c2/C=N\\NC(=O)C(N)Cc1c[nH]c2ccccc12 (stereo not given in full)", "> 100 µM"),
    ("O=C1/C(=C\\c2ccccc2)C2OCC=C3CN4CCC56c7ccccc7N1C5C2C3CC46 (stereo not given)", "> 100 µM"),
    ("COc1ccc(-n2cnc3c(NC(Cc4ccccc4)C(=O)O)ncnc32)cc1 (stereo not given)", "> 100 µM"),
    ("FC(F)(F)c1ccc2nc(Sc3ccc4ccccc4c3)cnc2c1", "> 100 µM"),
]

// query TGI value for entry Cc1cc2nc(-c3c(F)cccc3Cl)n(Cc3c(F)cccc3Cl)c2cc1C 46.2 µM

// query TGI value for entry CNC(c1ccncc1)C(NC)c1ccncc1 (stereo not given) > 100 µM
